For each record, write down the corresponding AC50.
# Tgt: Thromboxane A2 receptor (Homo sapiens, UniProt P21731)
# Sequence (P21731 whole entry): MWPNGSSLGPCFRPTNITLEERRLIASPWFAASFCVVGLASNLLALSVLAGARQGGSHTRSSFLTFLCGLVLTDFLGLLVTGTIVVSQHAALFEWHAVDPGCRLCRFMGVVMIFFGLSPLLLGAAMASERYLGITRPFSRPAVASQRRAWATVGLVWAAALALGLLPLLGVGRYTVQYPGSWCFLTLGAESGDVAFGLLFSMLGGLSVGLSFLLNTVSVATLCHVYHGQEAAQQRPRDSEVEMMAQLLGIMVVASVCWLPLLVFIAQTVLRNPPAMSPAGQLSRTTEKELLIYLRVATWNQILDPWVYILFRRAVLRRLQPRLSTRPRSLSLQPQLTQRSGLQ
# Format: functional, cell-based

Some molecules with recorded AC50:
| Molecule | Tgt | AC50 |
| --- | --- | --- |
| CC(C)NC(=N)NC(=N)Nc1ccc(Cl)c(Cl)c1 [CHLORPROGUANIL] | Thromboxane A2 receptor (Homo sapiens, UniProt P21731) | > 30 µM |
| N[C@@H](Cc1ccccc1)C(=O)O [PHENYLALANINE] | Thromboxane A2 receptor (Homo sapiens, UniProt P21731) | > 30 µM |
| C[C@H]1O[C@@H](O[C@H]2CC[C@@]3(C)[C@H](CC[C@@H]4[C@@H]3C[C@@H](O)[C@]3(C)[C@@H](C5=CC(=O)OC5)CC[C@]43O)C2)C[C@H](O)[C@@H]1O[C@H]1C[C@H](O)[C@H](O[C@H]2C[C@H](O)[C@H](O[C@@H]3O[C@H](CO)[C@@H](O)[C@H](O)[C@H]3O)[C@@H](C)O2)[C@@H](C)O1 [DESLANOSIDE] | Thromboxane A2 receptor (Homo sapiens, UniProt P21731) | > 30 µM |
| COC(=O)C[C@](O)(CCCC(C)(C)O)C(=O)O[C@@H]1C(OC)=C[C@]23CCCN2CCc2cc4c(cc2[C@H]13)OCO4 [OMACETAXINE MEPESUCCINATE] | Thromboxane A2 receptor (Homo sapiens, UniProt P21731) | > 30 µM |
| O=C(O)[C@@H]1C[C@@H](O)CN1 | Thromboxane A2 receptor (Homo sapiens, UniProt P21731) | > 30 µM |
| O=C(/C=C/c1cccc(S(=O)(=O)Nc2ccccc2)c1)NO [BELINOSTAT] | Thromboxane A2 receptor (Homo sapiens, UniProt P21731) | > 30 µM |

Give AC50 for all molecules that follow.
1. C[C@H]1CN(C[C@H](Cc2ccccc2)C(=O)NCC(=O)O)CC[C@@]1(C)c1cccc(O)c1 [ALVIMOPAN]
2. O=C(O)COCCN1CCN(C(c2ccccc2)c2ccc(Cl)cc2)CC1 (configuration not stated) [CETIRIZINE]
3. Cc1cc(=O)[nH]c(=S)[nH]1 [METHYLTHIOURACIL]
4. NC[C@H]1CC[C@H](C(=O)Oc2ccc(CCC(=O)O)cc2)CC1 [CETRAXATE]
5. CC1(CCN2CCCCC2)C(=O)CCc2ccccc21 (configuration not stated) [NEPINALONE]
6. CC(C(=O)O)c1cccc(Oc2ccccc2)c1 (configuration not stated) [FENOPROFEN]
7. COc1ccc(OC)c(C(O)C(C)N)c1 (configuration not stated) [METHOXAMINE]
8. Cc1cn([C@H]2O[C@@H](CO)[C@H](O)[C@H]2F)c(=O)[nH]c1=O [CLEVUDINE]

> 30 µM
> 30 µM
> 30 µM
> 30 µM
> 30 µM
> 30 µM
> 30 µM
> 30 µM

Give AC50 for all molecules that follow.
1. CC[C@@H]1C[C@]1(NC(=O)[C@@H]1C[C@@H]2CN1C(=O)[C@H](C(C)(C)C)NC(=O)OCC(C)(C)CCCCc1cccc3c1CN(C3)C(=O)O2)C(=O)NS(=O)(=O)C1CC1
2. O=C(O)c1ccccc1 [BENZOIC ACID]
3. CCCSc1nc(N[C@@H]2C[C@H]2c2ccc(F)c(F)c2)c2nnn([C@@H]3C[C@H](OCCO)[C@@H](O)[C@H]3O)c2n1 [TICAGRELOR]
4. C[C@@H]1C[C@H]2[C@@H]3C[C@H](F)C4=CC(=O)C=C[C@]4(C)[C@@]3(F)[C@@H](O)C[C@]2(C)[C@@]1(OC(=O)c1ccco1)C(=O)SCF [FLUTICASONE FUROATE]
5. CC[C@H]1OC(=O)[C@H](C)[C@@H](O[C@H]2C[C@@](C)(OC)[C@@H](O)[C@H](C)O2)[C@H](C)[C@@H](O[C@@H]2O[C@H](C)C[C@H](N(C)C)[C@H]2O)[C@](C)(O)C[C@@H](C)[C@@H]2N[C@@H](COCCOC)O[C@H]([C@H]2C)[C@]1(C)O [DIRITHROMYCIN]
6. O=C(O)CN(CCN(CC(=O)O)CC(=O)O)CCN(CC(=O)O)CC(=O)O [PENTETIC ACID]
7. CCNC(=O)/C=C(C)/C=C/C=C(C)/C=C/c1c(C)cc(OC)c(C)c1C [MOTRETINIDE]

1: 29.5 µM; 2: > 30 µM; 3: > 30 µM; 4: > 30 µM; 5: > 30 µM; 6: > 30 µM; 7: > 30 µM

Give AC50 for all molecules that follow.
1. Cc1oc(=O)oc1COC(=O)[C@@H]1N2C(=O)[C@@H](NC(=O)[C@H](N)c3ccccc3)[C@H]2SC1(C)C [LENAMPICILLIN]
2. C[N+](C)(C)CCOC(=O)CCC(=O)OCC[N+](C)(C)C [SUXAMETHONIUM]
3. CC(=O)OC[C@H]1O[C@@H](n2ncc(=O)[nH]c2=O)[C@H](OC(C)=O)[C@@H]1OC(C)=O [AZARIBINE]
4. NNCCc1ccccc1 [PHENELZINE]
5. C=C(C)CNc1ccc(C(C)C(=O)O)cc1 (configuration not stated) [ALMINOPROFEN]
6. Cc1cc(=O)oc2cc(O)ccc12 [HYMECROMONE]
7. Cc1ccc(C(=O)C(C)CN2CCCCC2)cc1 (configuration not stated) [TOLPERISONE]

1: > 30 µM; 2: > 30 µM; 3: > 30 µM; 4: > 30 µM; 5: > 30 µM; 6: > 30 µM; 7: > 30 µM

Give AC50 for all molecules that follow.
1. N=C(N)N/N=C/c1c(Cl)cccc1Cl [GUANABENZ]
2. Nc1c(CC(=O)O)cccc1C(=O)c1ccc(Br)cc1 [BROMFENAC]

1. > 30 µM
2. > 30 µM

Give AC50 for all molecules that follow.
1. C[C@H](CCC(=O)O)[C@H]1CC[C@H]2[C@@H]3[C@H](O)C[C@@H]4C[C@H](O)CC[C@]4(C)[C@H]3C[C@H](O)[C@]12C [CHOLIC ACID]
2. Cc1cc(C2CCCCC2)n(O)c(=O)c1 [CICLOPIROX]

1: > 30 µM; 2: 25.4 µM

* * *

# Tgt: UniProt:P32238
# Sequence (P32238 whole entry): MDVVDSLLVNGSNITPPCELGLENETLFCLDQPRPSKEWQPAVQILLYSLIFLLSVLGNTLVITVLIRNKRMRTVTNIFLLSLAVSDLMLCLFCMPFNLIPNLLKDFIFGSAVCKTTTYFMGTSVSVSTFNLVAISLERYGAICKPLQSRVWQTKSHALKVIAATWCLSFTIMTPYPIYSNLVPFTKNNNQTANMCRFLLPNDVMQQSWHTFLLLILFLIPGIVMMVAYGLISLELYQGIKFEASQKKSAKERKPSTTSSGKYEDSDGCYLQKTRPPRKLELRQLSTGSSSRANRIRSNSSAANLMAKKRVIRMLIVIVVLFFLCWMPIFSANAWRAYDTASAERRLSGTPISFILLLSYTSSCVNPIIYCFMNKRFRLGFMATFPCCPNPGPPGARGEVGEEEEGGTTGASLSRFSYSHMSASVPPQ
Recorded Metric: AC50

| Compound | AC50 |
| --- | --- |
| CCc1nc(N)nc(N)c1-c1ccc(Cl)cc1 | > 10 µM |
| CCC1(CCC(C)C)C(=O)NC(=O)NC1=O | > 10 µM |
| C[N+](C)(C)CCOP(=O)([O-])OC[C@H](O)CO | > 30 µM |

Give AC50 for all compounds that follow.
1. CC1=C(C(=O)OC(C)C)C(c2cccc([N+](=O)[O-])c2)C(C(=O)OC2CN(C(c3ccccc3)c3ccccc3)C2)=C(N)N1 (configuration not stated)
2. COc1cc(C(=O)NS(=O)(=O)c2ccccc2C)ccc1Cc1cn(C)c2ccc(NC(=O)OC3CCCC3)cc12
3. Cc1onc(-c2c(F)cccc2Cl)c1C(=O)N[C@@H]1C(=O)N2[C@@H]1SC(C)(C)[C@@H]2C(=O)O
4. CC/C=C\C/C=C\C/C=C\C/C=C\C/C=C\CCCC(=O)OCC

> 30 µM
> 10 µM
> 30 µM
> 30 µM

* * *

For each record, write down the corresponding AC50.
# Tgt: Vasopressin V1a receptor (Homo sapiens)
# Sequence (P37288 whole entry): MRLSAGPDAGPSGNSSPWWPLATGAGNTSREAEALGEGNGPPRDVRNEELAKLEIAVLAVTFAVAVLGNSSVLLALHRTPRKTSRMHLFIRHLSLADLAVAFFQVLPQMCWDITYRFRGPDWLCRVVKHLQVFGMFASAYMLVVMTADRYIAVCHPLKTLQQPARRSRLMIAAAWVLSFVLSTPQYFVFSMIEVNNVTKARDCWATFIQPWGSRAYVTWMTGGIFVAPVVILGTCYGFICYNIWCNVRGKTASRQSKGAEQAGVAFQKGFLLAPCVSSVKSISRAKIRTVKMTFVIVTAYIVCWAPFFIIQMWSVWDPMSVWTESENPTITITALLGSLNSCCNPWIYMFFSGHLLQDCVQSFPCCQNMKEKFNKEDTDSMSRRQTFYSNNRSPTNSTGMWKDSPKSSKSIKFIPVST
Where a SMILES comes first, the peptide text is derived from it. [ ]: non-standard residue; d: D form. pGlu = O=C1CC[C@@H](C(=O)O)N1; Thz = O=C(O)[C@@H]1CSCN1

Give AC50 for all molecules that follow.
1. CC(=O)[C@H]1CC[C@H]2[C@@H]3C[C@H](C)C4=CC(=O)CC[C@]4(C)[C@H]3[C@@H](O)C[C@]12C
2. CN[C@]1(c2ccccc2Cl)CCCCC1=O
3. CC(=O)Nc1ccc(CC(=O)O)cc1
4. CCOC(=O)C(C)(C)Oc1ccc(Cl)cc1 [CLOFIBRATE]
5. O=C1CC[C@@H](C(=O)N2CSC[C@H]2C(=O)O)N1 [PIDOTIMOD] ([pGlu]-[Thz]-OH)
6. CC(C)[C@@H](C)/C=C/[C@@H](C)[C@H]1CC[C@H]2/C(=C/C=C3\C[C@@H](O)CC[C@@H]3C)CCC[C@]12C [DIHYDROTACHYSTEROL]

1. > 10 µM
2. > 30 µM
3. > 30 µM
4. > 30 µM
5. > 30 µM
6. > 10 µM

Give AC50 for all molecules that follow.
1. CCCc1cc(=O)[nH]c(=S)[nH]1
2. CC(C)N(CCCCOCC(=O)O)c1cnc(-c2ccccc2)c(-c2ccccc2)n1

1. > 10 µM
2. > 30 µM

Give AC50 for all molecules that follow.
1. C=CCN1CCc2nc(N)sc2CC1 [TALIPEXOLE]
2. Cc1nnc(SCC2=C(C(=O)O)N3C(=O)[C@@H](NC(=O)Cn4cnnn4)[C@H]3SC2)s1
3. c1ccc(C2(N3CCCCC3)CCCCC2)cc1
4. COc1cc(C(=O)NS(=O)(=O)c2ccccc2C)ccc1Cc1cn(C)c2ccc(NC(=O)OC3CCCC3)cc12
5. C=CC[N+]1([C@H]2C[C@H]3[C@@H]4CC[C@H]5C[C@H](O)[C@@H](N6CCOCC6)C[C@]5(C)[C@H]4CC[C@]3(C)[C@H]2OC(C)=O)CCCC1
6. CC(=O)O[C@]1(C(C)=O)CC[C@H]2[C@@H]3C=C(Cl)C4=CC(=O)[C@@H]5C[C@@H]5[C@]4(C)[C@H]3CC[C@@]21C [CYPROTERONE ACETATE]

1. > 30 µM
2. > 300 µM
3. > 30 µM
4. > 10 µM
5. > 30 µM
6. > 10 µM
